Where these numbers come from: the NIST ThermoML archive (doi:10.1016/j.fluid.2010.10.018)

Conditions: 353 K; 101.33 kPa; Liquid; Falling or rolling sphere viscometry
Would you kindly list viscosity for each of these compounds?
Give bare numbers, in mPa·s.

The following compounds have reported results that may help.
1) CCn1cc[n+](C)c1.O=S(=O)([N-]S(=O)(=O)C(F)(F)F)C(F)(F)F | 8.036
2) CCCCCC[n+]1ccn(C)c1.O=S(=O)([N-]S(=O)(=O)C(F)(F)F)C(F)(F)F | 11.48
3) CCCC[n+]1ccn(C)c1.O=S(=O)([N-]S(=O)(=O)C(F)(F)F)C(F)(F)F | 9.911
4) CCCCCn1cc[n+](C)c1.O=S(=O)([N-]S(=O)(=O)C(F)(F)F)C(F)(F)F | 10.89
5) CCCn1cc[n+](C)c1.O=S(=O)([N-]S(=O)(=O)C(F)(F)F)C(F)(F)F | 9.251

GET /value?item= `CCCCCCCCCCn1cc[n+](C)c1.O=S(=O)([N-]S(=O)(=O)C(F)(F)F)C(F)(F)F` &field=viscosity returns 16.14

* * *

Consider the following compounds; for each one, report its viscosity.
Settings: 343 K; 101.33 kPa; Liquid; Concentric cylinders viscometry
Give bare numbers, in mPa·s.

Consider the following illustrative entries.
1) CCCCCCCCCCn1cc[n+](C)c1.O=S(=O)([N-]S(=O)(=O)C(F)(F)F)C(F)(F)F | 20.62
2) CCCCCCCCn1cc[n+](C)c1.O=S(=O)([N-]S(=O)(=O)C(F)(F)F)C(F)(F)F | 17.38
3) CCCCCCCn1cc[n+](C)c1.O=S(=O)([N-]S(=O)(=O)C(F)(F)F)C(F)(F)F | 15.92
4) CCCCCCCCCCCCn1cc[n+](C)c1.O=S(=O)([N-]S(=O)(=O)C(F)(F)F)C(F)(F)F | 24.55
5) CCCCCC[n+]1ccn(C)c1.O=S(=O)([N-]S(=O)(=O)C(F)(F)F)C(F)(F)F | 14.55

The following compounds each have a reported value; give each one's viscosity.
1. CCCCCCCCCCCCCCn1cc[n+](C)c1.O=S(=O)([N-]S(=O)(=O)C(F)(F)F)C(F)(F)F
2. CCCCCn1cc[n+](C)c1.O=S(=O)([N-]S(=O)(=O)C(F)(F)F)C(F)(F)F
3. CCCn1cc[n+](C)c1.O=S(=O)([N-]S(=O)(=O)C(F)(F)F)C(F)(F)F
4. CCCC[n+]1ccn(C)c1.O=S(=O)([N-]S(=O)(=O)C(F)(F)F)C(F)(F)F
5. CCn1cc[n+](C)c1.O=S(=O)([N-]S(=O)(=O)C(F)(F)F)C(F)(F)F

Key:
30.36
12.73
11.35
11.93
9.784

* * *

Details: 353 K; 101.33 kPa; Liquid; Concentric cylinders viscometry
Decision: viscosity beneath 10 mPa·s gives 1; viscosity meeting or exceeding 10 mPa·s gives -1.

1) CCCCCCCn1cc[n+](C)c1.O=S(=O)([N-]S(=O)(=O)C(F)(F)F)C(F)(F)F | -1

Exercise: Hello, I'm reviewing records and need to know if viscosity of `CCCCCCCCCCCCn1cc[n+](C)c1.O=S(=O)([N-]S(=O)(=O)C(F)(F)F)C(F)(F)F` is below 10 mPa·s. Could you check?
Key: -1

Exercise: Hello, is viscosity of the following compound strictly smaller than 10 mPa·s? `CCCCCCCCn1cc[n+](C)c1.O=S(=O)([N-]S(=O)(=O)C(F)(F)F)C(F)(F)F`
Key: -1

Exercise: Strictly below 10 mPa·s in viscosity? `CCCn1cc[n+](C)c1.O=S(=O)([N-]S(=O)(=O)C(F)(F)F)C(F)(F)F`
Key: 1

Exercise: # check: viscosity < 10 mPa·s for `CCCCCCCCCCn1cc[n+](C)c1.O=S(=O)([N-]S(=O)(=O)C(F)(F)F)C(F)(F)F`
Key: -1

Exercise: Quick check: does `CCCC[n+]1ccn(C)c1.O=S(=O)([N-]S(=O)(=O)C(F)(F)F)C(F)(F)F` have viscosity under 10 mPa·s?
Key: 1

Exercise: Identify whether the compound `CCCCCC[n+]1ccn(C)c1.O=S(=O)([N-]S(=O)(=O)C(F)(F)F)C(F)(F)F` records viscosity below 10 mPa·s.
Key: -1

Exercise: Please determine if `CCCCCCCCCCCCCCn1cc[n+](C)c1.O=S(=O)([N-]S(=O)(=O)C(F)(F)F)C(F)(F)F` is below 10 mPa·s in terms of viscosity.
Key: -1

Exercise: # check: viscosity < 10 mPa·s for `CCn1cc[n+](C)c1.O=S(=O)([N-]S(=O)(=O)C(F)(F)F)C(F)(F)F`
Key: 1
